- System: AGS gastric carcinoma cells
- protocol-text: Cell growth inhibition (CellTiter-Glo), AGS
- Type: cell-based
- run-parameters: Homo sapiens, 72 h, gastric_AGS, −HGF, 3 days
property-label: IC50

IC50 for AGS gastric carcinoma cells with input `C#Cc1cccc(Nc2ncnc3cc(OCCOC)c(OCCOC)cc23)c1` equals > 10 µM

====

Consider the following molecules; for each one, report its pIC50.
- System: ovary_SKOV3 tumor cells
- protocol-text: Cell growth inhibition (CellTiter-Glo), SKOV3
- Format: cell-based
- run-parameters: Homo sapiens, SK-OV-3, 72 h, ovary_SKOV3, +HGF (2 ng/mL), 3 days
Units for pIC50: none; it is -log10 of a concentration expressed in mol/L.

So for CS(=O)(=O)CCNCc1ccc(-c2ccc3ncnc(Nc4ccc(OCc5cccc(F)c5)c(Cl)c4)c3c2)o1 [Lapatinib] , the logged pIC50 turned out to be 5.25

So for C#Cc1cccc(Nc2ncnc3cc(OCCOC)c(OCCOC)cc23)c1 [Erlotinib] , the logged pIC50 turned out to be 5.27
